Recorded values, source paper PMC11358092.

Test system: E. coli MG1655
assayMethodText: High-throughput screening of FDA-approved drug library for antibiotic adjuvants (growth inhibition, OD600)
Type: cell-based, Escherichia coli
studyConditions: library drug alone, LB medium, 96-well, 8 h static culture at 37°C, relative to PMBN (positive) and DMSO (negative) controls, %, table head prints no unit
quantityName: Growth inhibition, Compound (%)
Enter your answer as a number in %; do not include the unit.

Illustrative cases are given below, each with its answer.
1. Cc1ccc2c(Cl)cc(Cl)c(O)c2n1    119
2. CCn1cc(C(=O)O)c(=O)c2ccc(C)nc21    74
3. Nc1ccc2cc3ccc(N)cc3nc2c1 [Proflavine Hemisulfate]    54

Ask: # get_value(readout= Growth inhibition, Compound, system= E. coli MG1655) for NC(=O)[C@@H]1CC[C@@H]2CN1C(=O)N2OS(=O)(=O)O [Avibactam sodium]
Result: 46

Ask: # get_value(readout= Growth inhibition, Compound, system= E. coli MG1655) for CO/N=C(\C(=O)N[C@@H]1C(=O)N2C(C(=O)O)=C(CSC(=O)c3ccco3)CS[C@H]12)c1csc(N)n1 [Sodium ceftiofur]
Result: 109

Ask: # get_value(readout= Growth inhibition, Compound, system= E. coli MG1655) for COS(=O)(=O)[O-].C[n+]1c2ccccc2nc2ccccc21 [Phenazine methosulfate]
Result: 80

Ask: # get_value(readout= Growth inhibition, Compound, system= E. coli MG1655) for Oc1c(Br)cc(Br)c2cccnc12
Result: 103

Ask: # get_value(readout= Growth inhibition, Compound, system= E. coli MG1655) for C=C[C@]1(C)C[C@@H](OC(=O)CS[C@@H]2C[C@H]3CC[C@@H](C2)N3C)[C@]2(C)[C@H](C)CC[C@]3(CCC(=O)[C@H]32)[C@@H](C)[C@@H]1O
Result: 97

---

System: E. coli MG1655
assayMethodText: High-throughput screening of FDA-approved drug library for antibiotic adjuvants (growth inhibition, OD600)
Assay type: cell-based, Escherichia coli
studyConditions: library drug alone, LB medium, 96-well, 8 h static culture at 37°C, relative to PMBN (positive) and DMSO (negative) controls, %, table head prints no unit
Where a name gives a salt, the structure may show the parent alone.
# key: entry, value: Growth inhibition, Compound
Enter your answer as a number in %; do not include the unit.

1) CCN1CCN(C(=O)N[C@@H](C(=O)N[C@@H]2C(=O)N3C(C(=O)O)=C(CSc4nnnn4C)CS[C@H]23)c2ccc(O)cc2)C(=O)C1=O    100
2) CCO.C[C@H]1c2cccc(O)c2C(O)=C2C(=O)[C@]3(O)C(O)=C(C(N)=O)C(=O)[C@@H](N(C)C)[C@@H]3[C@@H](O)[C@@H]21.C[C@H]1c2cccc(O)c2C(O)=C2C(=O)[C@]3(O)C(O)=C(C(N)=O)C(=O)[C@@H](N(C)C)[C@@H]3[C@@H](O)[C@@H]21.Cl.Cl.O [Doxycycline hyclate]    112
3) CCn1cc(C(=O)O)c(=O)c2cc(F)c(N3CCNCC3)nc21.CCn1cc(C(=O)O)c(=O)c2cc(F)c(N3CCNCC3)nc21.O.O.O [Enoxacin Sesquihydrate]    110
4) [O-][n+]1ccccc1SSc1cccc[n+]1[O-]    104
5) NC(=O)N/N=C/c1ccc([N+](=O)[O-])o1    76

Ask: # get_value(readout= Growth inhibition, Compound, system= E. coli MG1655) for CO/N=C(\C(=O)N[C@@H]1C(=O)N2C(C(=O)[O-])=C(C[n+]3ccc(N)n3CCO)CS[C@H]12)c1csc(N)n1.O=S(=O)(O)O [Cefoselis Sulfate]
Result: 107

Ask: # get_value(readout= Growth inhibition, Compound, system= E. coli MG1655) for Oc1cc(Cl)ccc1Oc1ccc(Cl)cc1Cl
Result: 79

Ask: # get_value(readout= Growth inhibition, Compound, system= E. coli MG1655) for O.c1cnc2c(c1)ccc1cccnc12 [1, 10-Phenanthroline monohydrate]
Result: 62

Ask: # get_value(readout= Growth inhibition, Compound, system= E. coli MG1655) for O=C(Cn1cnnn1)N[C@@H]1C(=O)N2C(C(=O)[O-])=C(CSc3nncs3)CS[C@H]12.[Na+] [Ceftezole sodium]
Result: 109

Ask: # get_value(readout= Growth inhibition, Compound, system= E. coli MG1655) for CCCCCCCCN=c1ccn(CCCCCCCCCCn2ccc(=NCCCCCCCC)cc2)cc1 [Octenidine Dihydrochloride]
Result: 91

Ask: # get_value(readout= Growth inhibition, Compound, system= E. coli MG1655) for CC1(C)S[C@@H]2[C@H](NC(=O)[C@H](NC(=O)N3CCNC3=O)c3ccccc3)C(=O)N2[C@H]1C(=O)O [Azlocillin sodium]
Result: 94

Ask: # get_value(readout= Growth inhibition, Compound, system= E. coli MG1655) for Cl.N[C@@H]1CCCCN(c2c(F)cc3c(=O)c(C(=O)O)cn(C4CC4)c3c2Cl)C1 [Besifloxacin HCl]
Result: 107

Ask: # get_value(readout= Growth inhibition, Compound, system= E. coli MG1655) for [H]/N=C(/NCCCCC)N/N=C/c1c[nH]c2ccc(OC)cc12 [Tegaserod maleate]
Result: 85

Ask: # get_value(readout= Growth inhibition, Compound, system= E. coli MG1655) for C[C@@H](O)[C@H]1C(=O)N2C(C(=O)O)=C(S[C@@H]3CN[C@H](C(=O)N(C)C)C3)[C@H](C)[C@H]12 [Meropenem trihydrate]
Result: 86

Ask: # get_value(readout= Growth inhibition, Compound, system= E. coli MG1655) for CCN1C(=O)C=CC1=O [N-Ethylmaleimide]
Result: 106

Ask: # get_value(readout= Growth inhibition, Compound, system= E. coli MG1655) for CC(=O)Oc1ccccc1C(=O)Nc1ncc([N+](=O)[O-])s1 [Nitazoxanide]
Result: 36

Ask: # get_value(readout= Growth inhibition, Compound, system= E. coli MG1655) for CCCCCCCCc1ccc(CCC(N)(CO)CO)cc1 [Fingolimod hydrochloride]
Result: 87

---

Test system: E. coli MG1655
assayMethodText: High-throughput screening of FDA-approved drug library for antibiotic adjuvants (growth inhibition, OD600)
Format: cell-based, Escherichia coli
studyConditions: library drug alone, LB medium, 96-well, 8 h static culture at 37°C, relative to PMBN (positive) and DMSO (negative) controls, %, table head prints no unit
# key: entry, value: Growth inhibition, Compound
Enter your answer as a number in %; do not include the unit.

Illustrative cases are given below, each with its answer.
1) Cc1oc(=O)oc1COC(=O)N1CC[C@@H](N2CC/C(=C\C3=C(C(=O)O)N4C(=O)[C@@H](NC(=O)/C(=N/O)c5nsc(N)n5)[C@H]4SC3)C2=O)C1    106
2) CO/N=C(\C(=O)N[C@@H]1C(=O)N2C(C(=O)O)=C(COC(C)=O)CS[C@H]12)c1csc(N)n1 [Cefotaxime sodium]    99

Now for a further compound.
Ask: Param item = Cc1cn([C@H]2C=C[C@@H](CO)O2)c(=O)[nH]c1=O ; retrieve measured Growth inhibition, Compound.
Result: 27

---

Tested on: E. coli MG1655
assayMethodText: High-throughput screening of FDA-approved drug library for antibiotic adjuvants (growth inhibition, OD600)
Assay type: cell-based, Escherichia coli
studyConditions: library drug alone, LB medium, 96-well, 8 h static culture at 37°C, relative to PMBN (positive) and DMSO (negative) controls, %, table head prints no unit
# key: entry, value: Growth inhibition, Compound
Enter your answer as a number in %; do not include the unit.

1. CN(C)[C@@H]1C(O)=C(C(N)=O)C(=O)[C@@]2(O)C(O)=C3C(=O)c4c(O)cccc4[C@@](C)(O)[C@H]3[C@H](O)[C@@H]12 [Oxytetracycline Dihydrate]    101

Ask: Param item = CN(C)[C@@H]1C(O)=C(C(N)=O)C(=O)[C@@]2(O)C(O)=C3C(=O)c4c(O)cccc4[C@@](C)(O)[C@H]3[C@H](O)[C@@H]12 [Oxytetracycline] ; retrieve measured Growth inhibition, Compound.
Result: 66

Ask: Param item = CO/N=C(/C(=O)N[C@@H]1C(=O)N2C(C(=O)O)=C(CSC(=O)c3ccco3)CS[C@H]12)c1csc(N)n1.Cl [Ceftiofur hydrochloride] ; retrieve measured Growth inhibition, Compound.
Result: 84

Ask: Param item = C[C@@H](O)[C@H]1C(=O)N2C(C(=O)O)=C(SC3CN(C4=NCCS4)C3)[C@H](C)[C@H]12 ; retrieve measured Growth inhibition, Compound.
Result: 109

Ask: Param item = C[C@@H](O)[C@H]1C(=O)N2C(C(=O)[O-])=C([C@H]3CCCO3)S[C@H]12.[Na+] [Faropenem sodium] ; retrieve measured Growth inhibition, Compound.
Result: 100

Ask: Param item = C[C@@H]1CC[C@H]2[C@@H](C)C(=O)O[C@@H]3O[C@@]4(C)CC[C@@H]1[C@]32OO4 ; retrieve measured Growth inhibition, Compound.
Result: 40

Ask: Param item = C[C@@H](O)[C@H]1C(=O)N2C(C(=O)O)=C(S[C@@H]3CN[C@H](C(=O)N(C)C)C3)[C@H](C)[C@H]12 [Meropenem] ; retrieve measured Growth inhibition, Compound.
Result: 90
